# Test system: HT29 colon
# protocol-notes: NCI tumour cell line growth inhibition, 48 h
assay-metric: TGI

>>> result("Cc1ccc(-c2nc(N3CCNCC3)c3oc(-c4ccc(C)cc4)nc3n2)cc1")
"3.42 µM"
>>> result("COC1=CC(=O)C(C2(OC(C)C)OC(=O)C(Cl)=C2Cl)=CC1=O (configuration not stated)")
"> 100 µM"
>>> result("Clc1ccc2cccc3c2c1C1OC3c2ccccc21 (configuration not stated)")
"> 100 µM"
>>> result("O=C1c2ccccc2C(=O)c2c(/C=C\\N3CCCCC3)ccnc21")
"15.1 µM"
>>> result("O=c1c(F)cn(Cc2c(Cl)cccc2Cl)c(=O)n1Cc1c(Cl)cccc1Cl")
"> 31.6 µM"
>>> result("CN(C)C(=S)/N=c1\\ssc(=S)n1C1CCCCC1")
"> 100 µM"
>>> result("COC(=O)c1cc2oc(/C=C3/SC(=S)N(NC(C)=O)C3=O)cc2n1C")
"> 100 µM"
>>> result("COc1cc2c(cc1OC)C(Cl)C(c1ccc(F)cc1)=C2Cl (configuration not stated)")
"32.5 µM"
>>> result("COc1ccc(C(C)NNC(=O)c2ccncc2)cc1OC (configuration not stated)")
"> 100 µM"
>>> result("CC1(C)CC(c2c[nH]c3ccccc23)=CC2=Nc3ccccc3C21O (configuration not stated)")
"> 100 µM"
>>> result("Oc1ccc(NCn2c(=S)sc3ccccc32)cc1")
"> 100 µM"
>>> result("CC1=C/C(=N\\NC(N)=S)C(C(O)(C(F)(F)F)C(F)(F)F)C(C)(C)C1 (configuration not stated)")
"> 10 µM"

----------
List of GI50 tested on U251 CNS.
assay-metric: GI50

>>> result("Cc1cc(Nc2ccc(C)c(Cl)c2)n2nc(C(F)(F)F)nc2n1")
"23.5 µM"
>>> result("COC(=O)[C@]12CC[C@@H](C)[C@H](C)[C@@H]1C1=CC[C@@H]3[C@@]4(C)C[C@@H](O)[C@H](O)[C@@](C)(CO)[C@@H]4[C@H](O)C[C@@]3(C)[C@]1(C)CC2")
"17.2 µM"
>>> result("CC(=O)N[C@@H](Cc1ccc(OP(=O)(O)O)cc1)C(=O)N[C@H]1CCC(=O)N2CCC[C@@H](C(=O)Nc3cccc4ccccc34)N2C1=O")
"> 25 µM"
>>> result("CN1CCN(C(=O)COc2ccc(C34CC5CC(CC(C5)C3)C4)cc2)CC1")
"10.8 µM"

----------
# Tested on: SNB-75 CNS
# protocol-notes: NCI tumour cell line growth inhibition, 48 h
Below is a list of entries, each paired with its recorded TGI value.
assay-metric: TGI

>>> result("Cc1ccc(S(=O)(=O)N2C3C=CC(C3)[C@@H]2C(Cl)(Cl)Cl)cc1 (some centres undefined)")
"51.2 µM"
>>> result("CNC(=O)NCCCC(NC(C)=O)C(=O)NCc1ccccc1 (centres undefined)")
"> 100 µM"
>>> result("COC(=O)/C=C/c1cc(OC(C)=O)c2c(c1)[C@@H](C(=O)OC)[C@H](c1ccc(OC(C)=O)c(OC(C)=O)c1)O2")
"1.48 µM"
>>> result("O=C(O)Cc1ccc([N+](=O)[O-])cc1[N+](=O)[O-]")
"> 100 µM"
>>> result("COc1cc2c(cc1O)[C@H](C)C(c1ccc(OC)c(OC)c1)O2 (some centres undefined)")
"11.7 µM"
>>> result("COC1=CC(=O)C(C2(OC(C)C)OC(=O)C(Cl)=C2Cl)=CC1=O (centres undefined)")
"> 100 µM"
>>> result("COC(=O)c1cccc(C)c1C1CN=NC12Cc1cc(C)cc(C)c1C2=O (centres undefined)")
"83.1 µM"
>>> result("CCCCCCc1cc2cc(-c3cn4ccsc4n3)c(=O)oc2cc1O")
"> 92.7 µM"
>>> result("COc1cc(C2C(Cl)C(=O)N2n2cnc3ccccc3c2=O)ccc1O (centres undefined)")
"> 100 µM"
